test summary: total protein half-life in vivo (active degradation + dilution); higher = more stable protein
experimental context: E. coli NCM3722 delta-clpP delta-lon delta-hslV; growth: N-lim chemostat; doubling time 6 h
assay metric: total protein half-life in vivo (h)
Kindly provide the numeric value in h only, without the unit symbol.

The examples below pair each entry with its known result.
MLARGKTNLKIEEIRMHKHHEIHRVKPLMPALCRIRQGKKVINWETHTLTVDNNQIILFPCGYEFYIENYPEAGLYLAEMLYLPIDLIESFQKLYTVTDQIRNKTSFFLPQNPELIYCWEQLKTSVSRGFSTKIQEHLAMGVLLSLGVNHVNHLLLSYSKQSLISRCYNLLLSEPGTKWTANKVARYLYISVSTLHRRLASEGVSFQSILDDVRLNNALSAIQTTVKPISEIARENGYKCPSRFTERFHNRFNITPREIRKASRE : 5.01
MMELMVVHPHIFWLSLGGLLLAAEMLGGNGYLLWSGVAAVITGLVVWLVPLGWEWQGVMFAILTLLAAWLWWKWLSRRVREQKHSDSHLNQRGQQLIGRRFVLESPLVNGRGHMRVGDSSWPVSASEDLGAGTHVEVIAIEGITLHIRAVSS [P0AAS3] : 6.35
MPPRRYNPDTRRDELLERINLDIPGAVAQALREDLGGTVDANNDITAKLLPENSRSHATVITRENGVFCGKRWVEEVFIQLAGDDVTIIWHVDDGDVINANQSLFELEGPSRVLLTGERTALNFVQTLSGVASKVRHYVELLEGTNTQLLDTRKTLPGLRSALKYAVLCGGGANHRLGLSDAFLIKENHIIASGSVRQAVEKASWLHPDAPVEVEVENLEELDEALKAGADIIMLDNFETEQMREAVKRTNGKALLEVSGNVTDKTLREFAETGVDFISVGALTKHVQALDLSMRFR : 4.6
MIIGNIHNLQPWLPQELRQAIEHIKAHVTAETPKGKHDIEGNRLFYLISEDMTEPYEARRAEYHARYLDIQIVLKGQEGMTFSTQPAGAPDTDWLADKDIAFLPEGVDEKTVILNEGDFVVFYPGEVHKPLCAVGAPAQVRKAVVKMLMA [P0AF96] : 4.25
MKKAKILSGVLLLCFSSPLISQAATLDVRGGYRSGSHAYETRLKVSEGWQNGWWASMESNTWNTIHDNKKENAALNDVQVEVNYAIKLDDQWTVRPGMLTHFSSNGTRYGPYVKLSWDATKDLNFGIRYRYDWKAYRQQDLSGDMSRDNVHRWDGYVTYHINSDFTFAWQTTLYSKQNDYRYANHKKWATENAFVLQYHMTPDITPYIEYDYLDRQGVYNGRDNLSENSYRIGVSFKL : 4.55

Input line: Endpoint output: total protein half-life in vivo of `MSKKIAVLITDEFEDSEFTSPADEFRKAGHEVITIEKQAGKTVKGKKGEASVTIDKSIDEVTPAEFDALLLPGGHSPDYLRGDNRFVTFTRDFVNSGKPVFAICHGPQLLISADVIRGRKLTAVKPIIIDVKNAGAEFYDQEVVVDKDQLVTSRTPDDLPAFNREALRLLGA` . Value?
Output line: 6.07

Input line: Endpoint output: total protein half-life in vivo of MIVLPRRLSDEVADRVRALIDEKNLEAGMKLPAERQLAMQLGVSRNSLREALAKLVSEGVLLSRRGGGTFIRWRHDTWSEQNIVQPLKTLMADDPDYSFDILEARYAIEASTAWHAAMRATPGDKEKIQLCFEATLSEDPDIASQADVRFHLAIAEASHNIVLLQTMRGFFDVLQSSVKHSRQRMYLVPPVFSQLTEQHQAVIDAIFAGDADGARKAMMAHLSFVHTTMKRFDEDQARHARITRLPGEHNEHSREKNA [P0ACL7] . Value?
Output line: 5.57

----------
test summary: total protein half-life in vivo (active degradation + dilution); higher = more stable protein
experimental context: wild type E. coli NCM3722; growth: C-lim chemostat; doubling time 3 h
assay metric: total protein half-life in vivo
The answer consists of two parts: a number and, after it, its unit.

MIKRNLPLMITIGVFVLGYLYCLTQFPGFASTRVICNILTDNAFLGIIAVGMTFVILSGGIDLSVGSVIAFTGVFLAKVIGDFGLSPLLAFPLVLVMGCAFGAFMGLLIDALKIPAFIITLAGMFFLRGVSYLVSEESIPINHPIYDTLSSLAWKIPGGGRLSAMGLLMLAVVVIGIFLAHRTRFGNQVYAIGGNATSANLMGISTRSTTIRIYMLSTGLATLAGIVFSIYTQAGYALAGVGVELDAIASVVIGGTLLSGGVGTVLGTLFGVAIQGLIQTYINFDGTLSSWWTKIAIGILLFIFIALQRGLTVLWENRQSSPVTRVNIAQQ : 3.66 h
MNIYTFDFDEIESQEDFYRDFSQTFGLAKDKVRDLDSLWDVLMNDVLPLPLEIEFVHLGEKTRRRFGALILLFDEAEEELEGHLRFNVRH : 2.87 h

Okay, now this sequence:
Input line: Endpoint output: total protein half-life in vivo of `MSSYANHQALAGLTLGKSTDYRDTYDASLLQGVPRSLNRDPLGLKADNLPFHGTDIWTLYELSWLNAKGLPQVAVGHVELDYTSVNLIESKSFKLYLNSFNQTRFNNWDEVRQTLERDLSTCAQGKISVALYRLDELEGQPIGHFNGTCIDDQDITIDNYEFTTDYLENATCGEKVVEETLVSHLLKSNCLITHQPDWGSLQIQYRGRQIDREKLLRYLVSFRHHNEFHEQCVERIFNDLLRFCQPEKLSVYARYTRRGGLDINPWRSNSDFVPSTTRLVRQ` . Value?
Output line: 2.81 h

----------
test summary: total protein half-life in vivo (active degradation + dilution); higher = more stable protein
experimental context: wild type E. coli NCM3722; growth: N-lim chemostat; doubling time 12 h
Class MET: total protein half-life in vivo at least 10 h. Class NOT MET: total protein half-life in vivo below 10 h.

Here are 5 sequences together with their reported answers.
MRRTFIKKEGVVITTLARYLLGEKCGNRLKTIDELANECRSSVGLTQAALKTLESSGAIRIERRGRNGSYLVEMDNKALLTHVDINNVVCAMPLPYTRLYEGLASGLKAQFDGIPFYYAHMRGADIRVECLLNGVYDMAVVSRLAAESYLTQKGLCLALELGPHTYVGEHQLICRKGESANVKRVGLDNRSADQKIMTDVFFGGSDVERVDLSYHESLQRIVKGDVDAVIWNVVAENELTMLGLEATPLTDDPRFLQATEAVVLTRVDDYPMQQLLRAVVDKHALLAHQQRVVSGEQEPSY : NOT MET
MHGNSEMQKINQTSAMPEKTDVHWSGRFSVAPMLDWTDRHCRYFLRLLSRNTLLYTEMVTTGAIIHGKGDYLAYSEEEHPVALQLGGSDPAALAQCAKLAEARGYDEINLNVGCPSDRVQNGMFGACLMGNAQLVADCVKAMRDVVSIPVTVKTRIGIDDQDSYEFLCDFINTVSGKGECEMFIIHARKAWLSGLSPKENREIPPLDYPRVYQLKRDFPHLTMSINGGIKSLEEAKAHLQHMDGVMVGREAYQNPGILAAVDREIFGSSDTDADPVAVVRAMYPYIERELSQGTYLGHITRHMLGLFQGIPGARQWRRYLSENAHKAGADINVLEHALKLVADKR : NOT MET
MQLNKVLKGLMIALPVMAIAACSSNKNASNDGSEGMLGAGTGMDANGGNGNMSSEEQARLQMQQLQQNNIVYFDLDKYDIRSDFAQMLDAHANFLRSNPSYKVTVEGHADERGTPEYNISLGERRANAVKMYLQGKGVSADQISIVSYGKEKPAVLGHDEAAYSKNRRAVLVY [P0A912] : MET
MSNTPIELKGSSFTLSVVHLHEAEPKVIHQALEDKIAQAPAFLKHAPVVLNVSALEDPVNWSAMHKAVSATGLRVIGVSGCKDAQLKAEIEKMGLPILTEGKEKAPRPAPTPQAPAQNTTPVTKTRLIDTPVRSGQRIYAPQCDLIVTSHVSAGAELIADGNIHVYGMMRGRALAGASGDRETQIFCTNLMAELVSIAGEYWLSDQIPAEFYGKAARLQLVENALTVQPLN : NOT MET
MQNTTHDNVILELTVRNHPGVMTHVCGLFARRAFNVEGILCLPIQDSDKSHIWLLVNDDQRLEQMISQIDKLEDVVKVQRNQSDPTMFNKIAVFFQ [P0ADF8] : NOT MET

Input line: Dear colleague, could you confirm whether `MPRFAANLSMMFTEVPFIERFAAARKAGFDAVEFLFPYNYSTLQIQKQLEQNHLTLALFNTAPGDINAGEWGLSALPGREHEAHADIDLALEYALALNCEQVHVMAGVVPAGEDAERYRAVFIDNIRYAADRFAPHGKRILVEALSPGVKPHYLFSSQYQALAIVEEVARDNVFIQLDTFHAQKVDGNLTHLIRDYAGKYAHVQIAGLPDRHEPDDGEINYPWLFRLFDEVGYQGWIGCEYKPRGLTEEGLGWFDAWR` has total protein half-life in vivo at or above 10 h?
Output line: NOT MET

Input line: Dear colleague, could you confirm whether MSKIKGNVKWFNESKGFGFITPEDGSKDVFVHFSAIQTNGFKTLAEGQRVEFEITNGAKGPSAANVIAL [P0A972] has total protein half-life in vivo at or above 10 h?
Output line: NOT MET

Input line: Dear colleague, could you confirm whether MIAELFTNNALNLVIIFGSCAALILMSFWFRRGNRKRKGFLFHAVQFLIYTIIISAVGSIINYVIENYKLKFITPGVIDFICTSLIAVILTIKLFLLINQFEKQQIKKGRDITSARIMSRIIKITIIVVLVLLYGEHFGMSLSGLLTFGGIGGLAVGMAGKDILSNFFSGIMLYFDRPFSIGDWIRSPDRNIEGTVAEIGWRITKITTFDNRPLYVPNSLFSSISVENPGRMTNRRITTTIGLRYEDAAKVGVIVEAVREMLKNHPAIDQRQTLLVYFNQFADSSLNIMVYCFTKTTVWAEWLAAQQDVYLKIIDIVQSHGADFAFPSQTLYMDNITPPEQGR [P0AEB5] has total protein half-life in vivo at or above 10 h?
Output line: MET

Input line: Dear colleague, could you confirm whether MIVLPRRLSDEVADRVRALIDEKNLEAGMKLPAERQLAMQLGVSRNSLREALAKLVSEGVLLSRRGGGTFIRWRHDTWSEQNIVQPLKTLMADDPDYSFDILEARYAIEASTAWHAAMRATPGDKEKIQLCFEATLSEDPDIASQADVRFHLAIAEASHNIVLLQTMRGFFDVLQSSVKHSRQRMYLVPPVFSQLTEQHQAVIDAIFAGDADGARKAMMAHLSFVHTTMKRFDEDQARHARITRLPGEHNEHSREKNA [P0ACL7] has total protein half-life in vivo at or above 10 h?
Output line: NOT MET

Input line: Dear colleague, could you confirm whether MVSSFTSAPRSGFYYFAQGWKLVSQPGIRRFVILPLLVNILLMGGAFWWLFTQLDVWIPTLMSYVPDWLQWLSYLLWPLAVISVLLVFGYFFSTIANWIAAPFNGLLAEQLEARLTGATPPDTGIFGIMKDVPRIMKREWQKFAWYLPRAIVLLILYFIPGIGQTVAPVLWFLFSAWMLAIQYCDYPFDNHKVPFKEMRTALRTRKITNMQFGALTSLFTMIPLLNLFIMPVAVCGATAMWVDCYRDKHAMWR [P0A6J3] has total protein half-life in vivo at or above 10 h?
Output line: MET

Input line: Dear colleague, could you confirm whether `MNALLSNPFKERLRKGEVQIGLWLSSTTAYMAEIAATSGYDWLLIDGEHAPNTIQDLYHQLQAVAPYASQPVIRPVEGSKPLIKQVLDIGAQTLLIPMVDTAEQARQVVSATRYPPYGERGVGASVARAARWGRIENYMAQVNDSLCLLVQVESKTALDNLDEILDVEGIDGVFIGPADLSASLGYPDNAGHPEVQRIIETSIRRIRAAGKAAGFLAVAPDMAQQCLAWGANFVAVGVDTMLYSDALDQRLAMFKSGKNGPRIKGSY` has total protein half-life in vivo at or above 10 h?
Output line: NOT MET
